tested on: P. mirabilis; assay: Anti-ureolytic activity, colorimetric urea broth microdilution; type: cell-based, Proteus mirabilis; details: Proteus mirabilis, read after 24 h, means ± SD of 3 independent experiments, read-out: urease inhibitory activity IC50 (µg/mL) ± SD
quantity-measured: IC50 (µg/mL)
Give just the numeric value; µg/mL need not be written.

Qu. Give IC50; test system P. mirabilis; compound c1ccc(CSc2nn3c(-c4ccccc4)nnc3s2)cc1
Ans. 78.2

Qu. Give IC50; test system P. mirabilis; compound Clc1ccc(CSc2nn3c(-c4ccccc4)nnc3s2)cc1Cl
Ans. 74.5

Qu. Give IC50; test system P. mirabilis; compound Clc1ccccc1CSc1nn2c(-c3ccccc3)nnc2s1
Ans. 93.3

Qu. Give IC50; test system P. mirabilis; compound Fc1cccc(CSc2nn3c(-c4ccccc4)nnc3s2)c1
Ans. 79.8

Qu. Give IC50; test system P. mirabilis; compound Brc1cccc(CSc2nn3c(-c4ccccc4)nnc3s2)c1
Ans. 112

###

Tested on: P. mirabilis
Test: Anti-ureolytic activity, colorimetric urea broth microdilution
Format: cell-based, Proteus mirabilis
Settings: Proteus mirabilis, read after 24 h, means ± SD of 3 independent experiments, read-out: urease inhibitory activity IC50 (µg/mL) ± SD
Method: The colorimetric microdilution technique using urea broth media (Merck) was used to examine the ureolytic activity of C. neoformans (H99), and clinical isolate of P. mirabilis treated with tested substances (supplemented with glucose; pH = 6 for C. neoformans). […] This shifts, allowing the determination of the inhibitory activity of compounds against the urease activity of organisms even without a microliter plate reader[45],[46].
quantity-measured: IC50 (µg/mL)
Give just the numeric value; µg/mL need not be written.

Qu. Name the recorded IC50 of the molecule listed here: Clc1ccc(CSc2nn3c(-c4ccccc4)nnc3s2)cc1
Ans. 75.4

Qu. Name the recorded IC50 of the molecule listed here: Brc1ccccc1CSc1nn2c(-c3ccccc3)nnc2s1
Ans. 109

Qu. Name the recorded IC50 of the molecule listed here: Fc1ccc(CSc2nn3c(-c4ccccc4)nnc3s2)cc1
Ans. 91

Qu. Name the recorded IC50 of the molecule listed here: Fc1ccccc1CSc1nn2c(-c3ccccc3)nnc2s1
Ans. 87.3

Qu. Name the recorded IC50 of the molecule listed here: Clc1cccc(CSc2nn3c(-c4ccccc4)nnc3s2)c1
Ans. 73.2

###

Target: Jack bean urease (Canavalia ensiformis)
Sequence (P07374 whole entry, looked up): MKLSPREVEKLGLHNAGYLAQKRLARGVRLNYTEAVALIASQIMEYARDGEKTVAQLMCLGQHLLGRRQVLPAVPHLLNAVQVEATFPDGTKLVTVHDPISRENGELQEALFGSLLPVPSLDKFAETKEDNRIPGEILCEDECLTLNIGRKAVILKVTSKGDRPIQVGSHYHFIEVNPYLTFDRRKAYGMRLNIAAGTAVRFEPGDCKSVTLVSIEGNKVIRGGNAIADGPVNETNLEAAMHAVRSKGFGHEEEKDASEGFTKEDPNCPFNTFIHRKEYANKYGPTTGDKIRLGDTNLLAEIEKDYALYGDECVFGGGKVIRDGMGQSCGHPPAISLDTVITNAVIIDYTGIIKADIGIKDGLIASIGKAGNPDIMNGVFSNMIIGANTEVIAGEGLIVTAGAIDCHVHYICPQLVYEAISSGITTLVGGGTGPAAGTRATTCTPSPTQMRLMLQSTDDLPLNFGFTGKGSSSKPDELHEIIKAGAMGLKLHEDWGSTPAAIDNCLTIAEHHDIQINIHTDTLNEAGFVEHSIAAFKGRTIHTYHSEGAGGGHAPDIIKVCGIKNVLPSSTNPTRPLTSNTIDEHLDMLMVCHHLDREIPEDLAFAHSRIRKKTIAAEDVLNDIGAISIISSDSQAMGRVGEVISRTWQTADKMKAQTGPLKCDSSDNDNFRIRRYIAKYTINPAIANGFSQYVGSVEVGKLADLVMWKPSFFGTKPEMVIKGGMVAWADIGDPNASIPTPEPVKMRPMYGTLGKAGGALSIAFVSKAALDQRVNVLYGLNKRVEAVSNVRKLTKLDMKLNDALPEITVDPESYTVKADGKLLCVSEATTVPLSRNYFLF
Assay: Screening of urease inhibitory activities (indophenol method, enzymatic)
Assay type: biochemical
Details: urease enzymatic assessment; mean ± SD of three independent experiments; read-out: IC50 (µM) ± SD
Protocol: Urease inhibition effects of the synthesized compounds were determined according to the previously reported procedure[37]–[39]. […] The absorbance of blue-colored indophenol of each cell is related to the percentage of enzyme inhibition using the following equation at 625 nm. The IC50 values for all synthesized compounds were calculated using GraphPad Prism software (GraphPad Software, Inc., San Diego, CA).
Give IC50 for every item shown.
Give just the numeric value; µM need not be written.

Qu. Name the recorded IC50 of the compound listed here: Brc1ccc(CSc2nn3c(-c4ccccc4)nnc3s2)cc1 [Compound 6k]
Ans. 1.53

Qu. Name the recorded IC50 of the compound listed here: O=[N+]([O-])c1ccc(CSc2nn3c(-c4ccccc4)nnc3s2)cc1 [Compound 6l]
Ans. 2.22

Qu. Name the recorded IC50 of the compound listed here: Cc1cccc(CSc2nn3c(-c4ccccc4)nnc3s2)c1 [Compound 6n]
Ans. 1.23

Qu. Name the recorded IC50 of the compound listed here: Cc1ccccc1CSc1nn2c(-c3ccccc3)nnc2s1 [Compound 6m]
Ans. 1.6

Qu. Name the recorded IC50 of the compound listed here: NC(N)=S [Thiourea, reference compound]
Ans. 22.5
